Reference source for all entries: paper PMC3817407

This section presents binders with their documented fold repression values.
- target desc: T1, ECF14_1324
- T1 chain: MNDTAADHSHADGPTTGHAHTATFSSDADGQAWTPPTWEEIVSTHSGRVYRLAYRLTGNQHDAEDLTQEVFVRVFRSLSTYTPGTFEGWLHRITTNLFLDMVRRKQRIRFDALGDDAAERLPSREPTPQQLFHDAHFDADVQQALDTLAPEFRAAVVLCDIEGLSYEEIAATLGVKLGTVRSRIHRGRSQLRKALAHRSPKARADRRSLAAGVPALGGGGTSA
recorded metric: fold repression

AS31_34 (protein) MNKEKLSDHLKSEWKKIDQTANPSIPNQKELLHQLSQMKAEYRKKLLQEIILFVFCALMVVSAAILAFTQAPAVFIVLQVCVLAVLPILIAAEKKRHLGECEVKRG: 6.35
AS15_436 (protein) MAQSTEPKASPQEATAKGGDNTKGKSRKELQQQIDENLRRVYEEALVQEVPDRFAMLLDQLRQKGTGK: 9
AS30_35 (protein) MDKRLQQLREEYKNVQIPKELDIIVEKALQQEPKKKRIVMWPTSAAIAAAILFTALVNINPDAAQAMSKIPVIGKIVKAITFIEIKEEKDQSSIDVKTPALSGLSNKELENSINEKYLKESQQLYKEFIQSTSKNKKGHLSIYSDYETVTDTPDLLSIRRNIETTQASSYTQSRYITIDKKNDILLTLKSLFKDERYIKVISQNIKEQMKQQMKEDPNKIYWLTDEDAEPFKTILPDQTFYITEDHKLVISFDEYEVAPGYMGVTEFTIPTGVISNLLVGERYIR: 1.7
AS03_1198 (protein) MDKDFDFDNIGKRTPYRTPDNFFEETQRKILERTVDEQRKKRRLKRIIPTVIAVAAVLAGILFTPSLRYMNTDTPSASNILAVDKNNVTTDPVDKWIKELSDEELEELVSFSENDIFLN: 0.798
AS16_3622 (protein) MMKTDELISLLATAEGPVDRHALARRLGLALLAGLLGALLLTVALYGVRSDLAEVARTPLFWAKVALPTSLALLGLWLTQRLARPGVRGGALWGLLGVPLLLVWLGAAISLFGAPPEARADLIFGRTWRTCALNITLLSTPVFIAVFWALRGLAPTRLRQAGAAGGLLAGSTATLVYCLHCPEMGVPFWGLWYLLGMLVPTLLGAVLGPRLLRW: 8.8
AS15_524 (protein) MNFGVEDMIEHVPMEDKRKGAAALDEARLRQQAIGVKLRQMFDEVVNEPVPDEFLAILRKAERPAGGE: 10.5
AS03_1244 (protein) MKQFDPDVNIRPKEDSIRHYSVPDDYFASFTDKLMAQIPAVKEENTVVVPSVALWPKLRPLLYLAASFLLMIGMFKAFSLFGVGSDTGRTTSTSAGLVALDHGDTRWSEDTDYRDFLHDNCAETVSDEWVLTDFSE: 2.35
